# Tested on: NCI-H1650
# PROTOCOL: relative viability (nuclei count vs DMSO), 5 days (fraction); higher = more cells survive
# APPLIED CONDITIONS: first compound 0.6325 µM
MEASURE: relative viability

Qu. Recorded relative viability of COCC1(CO)C(=O)C2CCN1CC2 (centres undefined) [PRIMA-1MET] + O=C(c1cc(Cc2n[nH]c(=O)c3ccccc23)ccc1F)N1CCN(C(=O)C2CC2)CC1 [Olaparib] (partner 8 µM) , please.
Ans. 0.744

Qu. Okay, and COCC1(CO)C(=O)C2CCN1CC2 (centres undefined) [PRIMA-1MET] + C[C@@H](Oc1cc(-c2cnn(C3CCNCC3)c2)cnc1N)c1c(Cl)ccc(F)c1Cl [Crizotinib] (partner 1 µM) ?
Ans. 1.02

Qu. What about COCC1(CO)C(=O)C2CCN1CC2 (centres undefined) [PRIMA-1MET] + CS(=O)(=O)N1CCN(Cc2cc3nc(-c4cccc5[nH]ncc45)nc(N4CCOCC4)c3s2)CC1 [Pictilisib] (partner 1 µM) ?
Ans. 0.483

Qu. Request: COCC1(CO)C(=O)C2CCN1CC2 (centres undefined) [PRIMA-1MET] + N=C(N)NC(=N)NCCc1ccccc1 [Phenformin] (partner 250 µM)
Ans. 0.443

====

# Test system: HCC-827
# PROTOCOL: relative viability (nuclei count vs DMSO), 5 days (fraction); higher = more cells survive
# APPLIED CONDITIONS: first compound 0.253 µM
Decision: relative viability beneath 0.5 gives true; relative viability meeting or exceeding 0.5 gives false.

Record excerpt, results attached:
COMPOUND	TGT	CLASSIFICATION
O=c1cc(-c2cccc3c2Sc2ccccc2S3)oc(N2CCOCC2)c1 + O=C(c1cc(Cc2n[nH]c(=O)c3ccccc23)ccc1F)N1CCN(C(=O)C2CC2)CC1 [Olaparib] (partner 8 µM)	HCC-827	false
O=c1cc(-c2cccc3c2Sc2ccccc2S3)oc(N2CCOCC2)c1 + N=C(N)NC(=N)NCCc1ccccc1 [Phenformin] (partner 250 µM)	HCC-827	true
O=c1cc(-c2cccc3c2Sc2ccccc2S3)oc(N2CCOCC2)c1 + CS(=O)(=O)N1CCN(Cc2cc3nc(-c4cccc5[nH]ncc45)nc(N4CCOCC4)c3s2)CC1 [Pictilisib] (partner 1 µM)	HCC-827	false

Qu. Is the reported relative viability for COc1nc(C)cnc1NS(=O)(=O)c1cccnc1-c1ccc(-c2nnco2)cc1 [Zibotentan] + O=C(c1cc(Cc2n[nH]c(=O)c3ccccc23)ccc1F)N1CCN(C(=O)C2CC2)CC1 [Olaparib] (partner 8 µM) strictly below 0.5?
Ans. false

Qu. COc1nc(C)cnc1NS(=O)(=O)c1cccnc1-c1ccc(-c2nnco2)cc1 [Zibotentan] + CS(=O)(=O)CCNCc1ccc(-c2ccc3ncnc(Nc4ccc(OCc5cccc(F)c5)c(Cl)c4)c3c2)o1 [Lapatinib] (partner 2 µM) ?
Ans. true

Qu. Now consider COc1nc(C)cnc1NS(=O)(=O)c1cccnc1-c1ccc(-c2nnco2)cc1 [Zibotentan] + Cc1cc(Nc2cc(N3CCN(C)CC3)nc(Sc3ccc(NC(=O)C4CC4)cc3)n2)n[nH]1 [Tozasertib] (partner 0.1 µM) .
Ans. true

====

# Tested on: NCI-H1437
# PROTOCOL: relative viability (nuclei count vs DMSO), 5 days (fraction); higher = more cells survive
# APPLIED CONDITIONS: first compound 2.53 µM
MEASURE: relative viability
Lab note: jot down the number only; don't add units.

MOLECULE	TEST RESULT
O=c1cc(-c2cccc3c2Sc2ccccc2S3)oc(N2CCOCC2)c1 + Nc1ncn([C@H]2C[C@H](O)[C@@H](CO)O2)c(=O)n1 [Decitabine] (partner 2 µM)	0.524
O=c1cc(-c2cccc3c2Sc2ccccc2S3)oc(N2CCOCC2)c1 + COc1cc2c(Oc3ccc(NC(=O)C4(C(=O)Nc5ccc(F)cc5)CC4)cc3F)ccnc2cc1OCCCN1CCOCC1 [Foretinib] (partner 0.25 µM)	1.23
COc1nc(C)cnc1NS(=O)(=O)c1cccnc1-c1ccc(-c2nnco2)cc1 [Zibotentan] + Nc1ncn([C@H]2C[C@H](O)[C@@H](CO)O2)c(=O)n1 [Decitabine] (partner 2 µM)	0.556
O=c1cc(-c2cccc3c2Sc2ccccc2S3)oc(N2CCOCC2)c1 + Cc1nc(NC(=O)N2CCC[C@H]2C(N)=O)sc1-c1ccnc(C(C)(C)C(F)(F)F)c1 [Alpelisib] (partner 2 µM)	0.989

We now examine a further molecule.
Qu. What does the data say about its relative viability? Entry: O=c1cc(-c2cccc3c2Sc2ccccc2S3)oc(N2CCOCC2)c1 + Nc1nc2[nH]cc(CCc3ccc(C(=O)N[C@@H](CCC(=O)O)C(=O)O)cc3)c2c(=O)[nH]1 [Pemetrexed] (partner 0.2 µM)
Ans. 0.288

====

# Tested on: NCI-H1792
# PROTOCOL: relative viability (nuclei count vs DMSO), 5 days (fraction); higher = more cells survive
# APPLIED CONDITIONS: first compound 0.03162 µM
MEASURE: relative viability
// return just the number, without any unit appended

Recorded relative viability, per entry:
COMPOUND	relative viability
O=c1cc(N2CCOCC2)oc2c(-c3cccc4c3sc3ccccc34)cccc12 + Cc1nc(Nc2ncc(C(=O)Nc3c(C)cccc3Cl)s2)cc(N2CCN(CCO)CC2)n1 [Dasatinib] (partner 0.075 µM)	0.663
O=c1cc(N2CCOCC2)oc2c(-c3cccc4c3sc3ccccc34)cccc12 + O=C(c1cc(Cc2n[nH]c(=O)c3ccccc23)ccc1F)N1CCN(C(=O)C2CC2)CC1 [Olaparib] (partner 8 µM)	0.465

Qu. Can you look up the measured relative viability of CCN(CC)CCCCNc1ncc2cc(-c3cc(OC)cc(OC)c3)c(NC(=O)NC(C)(C)C)nc2n1 + COc1cccc2cc(-c3nc([C@H]4CC[C@H](C(=O)O)CC4)n4ncnc(N)c34)[nH]c12 [OSI-027] (partner 0.5 µM) for me?
Ans. 0.783

====

Catalogue of relative viability readings, one per entry.
# System: NCI-H1734
# PROTOCOL: relative viability (nuclei count vs DMSO), 5 days (fraction); higher = more cells survive
# APPLIED CONDITIONS: first compound 0.1 µM

COMPOUND	MEASURE	TEST RESULT
CCN(CC)CCCCNc1ncc2cc(-c3cc(OC)cc(OC)c3)c(NC(=O)NC(C)(C)C)nc2n1 + Nc1nc2[nH]cc(CCc3ccc(C(=O)N[C@@H](CCC(=O)O)C(=O)O)cc3)c2c(=O)[nH]1 [Pemetrexed] (partner 0.2 µM)	relative viability	0.418

We now examine a further compound.
Qu. Name the reported relative viability value associated with the compound O=c1cc(N2CCOCC2)oc2c(-c3cccc4c3sc3ccccc34)cccc12 + CC(=O)c1c(C)c2cnc(Nc3ccc(N4CCNCC4)cn3)nc2n(C2CCCC2)c1=O [Palbociclib] (partner 0.5 µM)
Ans. 0.434

====

# Test system: NCI-H647
# PROTOCOL: relative viability (nuclei count vs DMSO), 5 days (fraction); higher = more cells survive
# APPLIED CONDITIONS: first compound 0.6325 µM
Binary label based on relative viability with cut-off 1: below gives condition met, not below gives condition not met.

Qu. API: query returns whether the compound falls strictly under 1 in relative viability. Query: COCC1(CO)C(=O)C2CCN1CC2 (stereo not given) [PRIMA-1MET] + N=C(N)NC(=N)NCCc1ccccc1 [Phenformin] (partner 250 µM)
Ans. condition met

Qu. Moving on to the next compound: COCC1(CO)C(=O)C2CCN1CC2 (stereo not given) [PRIMA-1MET] + CS(=O)(=O)CCNCc1ccc(-c2ccc3ncnc(Nc4ccc(OCc5cccc(F)c5)c(Cl)c4)c3c2)o1 [Lapatinib] (partner 2 µM)
Ans. condition not met

Qu. What do we get for COCC1(CO)C(=O)C2CCN1CC2 (stereo not given) [PRIMA-1MET] + CC(=O)Nc1cccc(-n2c(=O)n(C3CC3)c(=O)c3c(Nc4ccc(I)cc4F)n(C)c(=O)c(C)c32)c1 [Trametinib] (partner 0.02 µM) ?
Ans. condition met

Qu. Let us now turn to COCC1(CO)C(=O)C2CCN1CC2 (stereo not given) [PRIMA-1MET] + COc1cccc2cc(-c3nc([C@H]4CC[C@H](C(=O)O)CC4)n4ncnc(N)c34)[nH]c12 [OSI-027] (partner 0.5 µM)
Ans. condition met

====

# Test system: NCI-H647
# PROTOCOL: relative viability (nuclei count vs DMSO), 5 days (fraction); higher = more cells survive
# APPLIED CONDITIONS: first compound 2 µM
MEASURE: relative viability
A bare number is all that is needed in reply.

Below, each entry is followed by its recorded relative viability result.
MOLECULE	relative viability
COCC1(CO)C(=O)C2CCN1CC2 (configuration not stated) [PRIMA-1MET] + NC(=O)Nc1cc(-c2cccc(F)c2)sc1C(=O)N[C@H]1CCCNC1 [AZD7762] (partner 0.2 µM)	0.38
COCC1(CO)C(=O)C2CCN1CC2 (configuration not stated) [PRIMA-1MET] + CS(=O)(=O)CCNCc1ccc(-c2ccc3ncnc(Nc4ccc(OCc5cccc(F)c5)c(Cl)c4)c3c2)o1 [Lapatinib] (partner 2 µM)	0.759
COCC1(CO)C(=O)C2CCN1CC2 (configuration not stated) [PRIMA-1MET] + COc1cc2c(Oc3ccc(NC(=O)C4(C(=O)Nc5ccc(F)cc5)CC4)cc3F)ccnc2cc1OCCCN1CCOCC1 [Foretinib] (partner 0.25 µM)	1.08
COCC1(CO)C(=O)C2CCN1CC2 (configuration not stated) [PRIMA-1MET] + C[C@@H](Oc1cc(-c2cnn(C3CCNCC3)c2)cnc1N)c1c(Cl)ccc(F)c1Cl [Crizotinib] (partner 1 µM)	1.09
COCC1(CO)C(=O)C2CCN1CC2 (configuration not stated) [PRIMA-1MET] + CC(=O)c1c(C)c2cnc(Nc3ccc(N4CCNCC4)cn3)nc2n(C2CCCC2)c1=O [Palbociclib] (partner 0.5 µM)	0.276

Qu. What is its relative viability for NCI-H647? Entry: COCC1(CO)C(=O)C2CCN1CC2 (configuration not stated) [PRIMA-1MET] + COc1cccc2cc(-c3nc([C@H]4CC[C@H](C(=O)O)CC4)n4ncnc(N)c34)[nH]c12 [OSI-027] (partner 0.5 µM)
Ans. 0.508

Qu. Same thing, different molecule: COCC1(CO)C(=O)C2CCN1CC2 (configuration not stated) [PRIMA-1MET] + Nc1nc2[nH]cc(CCc3ccc(C(=O)N[C@@H](CCC(=O)O)C(=O)O)cc3)c2c(=O)[nH]1 [Pemetrexed] (partner 0.2 µM)
Ans. 0.19

Values from the supplement of paper PMC10307832
